reported.property: MIC (µg/mL)
Numbers only here, please. The scale is µg/mL.

IN: Determine reported MIC for `CC(C)OC(=S)NC[C@H]1CN(c2cc(F)c(N3CNC(=O)C3)c(F)c2)C(=O)O1` ; test system: Salmorella TA 97.
OUT: 32

IN: Send back Salmorella TA 97 MIC of `CCCOC(=S)NC[C@H]1CN(c2cc(F)c(N3CNC(=O)C3)c(F)c2)C(=O)O1` only.
OUT: 32

IN: Specify the recorded MIC for `COC(=S)NC[C@H]1CN(c2cc(F)c(N3CC(=O)N(CC(=O)OC(C)(C)C)C3)c(F)c2)C(=O)O1` , system: Salmorella TA 97.
OUT: 32

IN: Param request: MIC | system Salmorella TA 97 | item `CCOC(=S)NC[C@H]1CN(c2cc(F)c(N3CNC(=O)C3)c(F)c2)C(=O)O1`
OUT: 32

IN: Given `COC(=S)NC[C@H]1CN(c2cc(F)c(N3CC(=O)N(C)C3)c(F)c2)C(=O)O1` , report its MIC on Salmorella TA 97.
OUT: 16

IN: Report the value of MIC obtained on Salmorella TA 97 for `COC(=O)CN1CN(c2c(F)cc(N3C[C@H](CNC(=S)OC)OC3=O)cc2F)CC1=O` .
OUT: 32
